# Assay Comment: Visual solubility estimate of amorphous Compound 1 in solvents
# Format: physicochemical
# Condition Label: dichloromethane, 23 °C, organic solvent or mixture, thermodynamic from solid, Dichloromethane; RT (~23° C.); visually estimated; read-out: Solubility at RT
Endpoint Name: solubility

Query block: # solubility lookup, item CC(=O)c1nn(CC(=O)N2C[C@H](F)C[C@H]2C(=O)Nc2cccc(Br)n2)c2ccc(-c3cnc(C)nc3)cc12 [Amorphous Compound 1]
Result block: 99 to 396 mg/mL

---

# Assay Comment: Visual solubility estimate of amorphous Compound 1 in solvents
# Format: physicochemical
# Condition Label: 2-propanol, 23 °C, organic solvent or mixture, thermodynamic from solid, 2-Propanol; RT (~23° C.); visually estimated; read-out: Solubility at RT
Endpoint Name: solubility

Query block: Suppose we examine the compound CC(=O)c1nn(CC(=O)N2C[C@H](F)C[C@H]2C(=O)Nc2cccc(Br)n2)c2ccc(-c3cnc(C)nc3)cc12 ; what solubility value has been reported?
Result block: < 5710 µg/mL
